System: RPMI-8226 leukemia
assayProtocol: NCI tumour cell line growth inhibition, 48 h
assayEndpoint: TGI

# annotated cases, reported TGI shown
compound	TGI
Clc1ccc(Cl)c(Nc2ccnc(SCc3ccccc3)n2)c1	> 100 µM
CSC1(CC(=O)N(C)C)C(=O)Nc2ccccc21 (centres undefined)	> 100 µM
Cc1cn(C2CC(N(O)Cc3ccccc3)C(CO)O2)c(=O)[nH]c1=O (centres undefined)	> 100 µM
COc1cc2c(cc1OC)C13CCN4CC5=CCOC6CC(=O)N2C1C6C5CC43O (centres undefined)	> 100 µM

Record TGI per entry; entries follow.
1. COC(=O)C1OC(Oc2cc(O)c3c(=O)cc(-c4ccc(O)cc4)oc3c2)C(O)C(O)C1O (centres undefined)
2. CCOC(=O)C(N)CSC(=O)NC (centres undefined)
3. C/C(=N\Nc1cc(CN2CCCC2)c(-c2ccc(Cl)cc2)nn1)C(=O)O
4. COc1cc2cn3c4ccc(O)cc4[nH]c(=O)c3c2cc1OC
5. O=C(CC(c1ccccc1)N1CCCCC1)c1ccccc1 (centres undefined)
6. CN(C)C(=O)OCOC(=O)N(C)C

> 100 µM
214 µM
> 100 µM
10.4 µM
5.23 µM
> 100 µM

Record TGI per entry; entries follow.
1. N#CC1(C2SCCS2=O)C2=C(C(=O)c3ccccc3C2=O)N2CCCC21 (centres undefined)
2. Nc1ccc(C(=O)NN2C(=O)C(Cl)C2c2ccccc2Cl)cc1 (centres undefined)
3. COc1ccc(-n2cc(-c3ccc(Cl)c(Cl)c3)nc2SCc2cccc(C#N)c2)cc1
4. CCN(CC)CCn1nc(N)c2nc3cc(Cl)ccc3nc21

1. 9.91 µM
2. > 100 µM
3. > 100 µM
4. > 100 µM

====

Would you kindly list GI50 for each of these compounds?
Tested on: BT-549 breast
assayProtocol: NCI tumour cell line growth inhibition, 48 h

smilesString	subjectOfTest	measured
Cc1cc(NC(=O)c2ccc(C)c(Nc3nccc(-c4cccnc4)n3)c2)cc(-n2cnc(C)c2)c1	BT-549 breast	0.159 µM
CC(=O)Oc1ccc(Nc2c3ccccc3nc3ccccc23)cc1	BT-549 breast	2.77 µM

Continue with the compound presented below.
Hello, please tell me recorded GI50 for this one: "Fc1ccc(Nc2cc(-n3nnc4ccccc43)nc3ccccc23)cc1"
> 47.9 µM

====

Would you kindly list TGI for each of these compounds?
Test system: MDA-MB-231 breast
assayProtocol: NCI tumour cell line growth inhibition, 48 h

# annotated cases, reported TGI shown
compound	TGI
O=C(O)c1cccc(OCCO)c1	> 100 µM
CC1(C#N)CC(C)(C)C(/C=C2/CC(C)(C)C(/C=C3/OC(=N)CC3(C)C)=N2)=N1 (stereo not drawn)	> 100 µM

Continue with the compound presented below.
Hello, please tell me recorded TGI for this one: "CC(=O)N(C(=O)CC(=O)N/N=C\c1ccc(Br)c(N(CCC#N)CCC#N)c1)c1ccc(Cl)cc1"
> 100 µM

====

Tested on: SK-MEL-2 melanoma
assayProtocol: NCI tumour cell line growth inhibition, 48 h
Would you kindly list TGI for each of these compounds?

# annotated cases, reported TGI shown
compound	TGI
Cc1cn2c(/C=C3/C(=O)Nc4ccccc43)c(-c3ccc(Cl)cc3)nc2s1	> 50 µM
CCOC(=O)CC1c2ccc(O)cc2OC(=O)C1c1ccc([N+](=O)[O-])cc1 (configuration not stated)	40.1 µM

Record TGI per entry; entries follow.
1. CC(C)(C)N1CC2(CCCCC2)C1=O
2. COC(=O)[C@@H](NC(=O)[C@@H](OC)[C@@H]1Cc2cc3cc(OC4CC(OC5CC(O)C(O)C(C)O5)C(O)C(C)O4)c(C)c(O)c3c(O)c2C(=O)[C@H]1OC1CC(OC2CC(OC3CC(C)(O)C(O)C(C)O3)C(O)C(C)O2)C(O)C(C)O1)C(C)C (some centres not stated)
3. COc1ccc(/C=c2/sc3n(c2=O)C(c2ccc(OC)c(OC)c2)C2=C(N=3)c3cc(F)ccc3OC2)cc1 (configuration not stated)
4. Clc1ccc(-c2c(C3=NCCN3)nnn2-c2ccc(Cl)cc2)cc1
5. COc1ccc2c(c1)CCc1c-2[nH]c2ccc(OC)cc12
6. O=c1[nH]c2cc(Cl)ccc2n1C1CCN(CCCC(c2ccc(F)cc2)c2ccc(F)cc2)CC1
7. CC(C)CC1[C@@H](OCc2ccccc2)COS(=O)N1Cc1ccccc1 (some centres not stated)

1: > 100 µM; 2: 7.94 µM; 3: > 92.4 µM; 4: 26.1 µM; 5: > 100 µM; 6: 3.35 µM; 7: > 100 µM

Record TGI per entry; entries follow.
1. Cn1ccc(C(=O)NCCOCCNC(=O)c2ccn(C)c(=O)c2O)c(O)c1=O
2. N#CC1Nc2ccccc2[C@@H](O)C1O (some centres not stated)
3. CCN(CC)CCOc1ccc(/C(=C(\C)c2ccc(F)c(OC)c2)c2ccc(Cl)cc2)cc1
4. O=c1c(-c2ccccc2)c(SCCCN2CCN(c3cccc(Cl)c3)CC2)n(-c2ccccc2)c(=S)n1-c1ccccc1
5. CCN(CC)CCNCC(=O)Oc1ccc(/C=C/C(=O)CC(=O)/C=C/c2ccc(OC(=O)CNCCN(CC)CC)c(OC)c2)cc1OC
6. C#C[C@]1(O)CC[C@H]2[C@@H]3CC=C4c5sc(Nc6ccccc6)nc5CC[C@]4(C)[C@H]3CC[C@@]21C
7. COC1=C(Br)[C@H](O)[C@@]2(C=C1Br)CC(C(=O)NCCCCCN=C(N)N)=NO2

> 100 µM
> 100 µM
5.51 µM
> 100 µM
12.7 µM
5.75 µM
> 10 µM

Record TGI per entry; entries follow.
1. CC(=O)c1csc2c1C(=O)c1scc(C(C)=O)c1C2=O
2. CCOC(=O)C1=C(C)N(N)C(=S)NC1c1ccc(C)cc1 (configuration not stated)
3. COC(=O)C1OC(Oc2cc(O)c3c(=O)cc(-c4ccc(O)cc4)oc3c2)C(O)C(O)C1O (configuration not stated)
4. CCCS(=O)(=O)Nc1ccc(Nc2c3ccccc3nc3ccccc23)c(OC)c1
5. O=C(CCC/C(CC(=O)c1ccc(Br)cc1)=N\O)Nc1ccccc1

["3.73 µM", "> 100 µM", "> 100 µM", "7.7 µM", "> 100 µM"]

====

Would you kindly list TGI for each of these molecules?
System: OVCAR-4 ovarian
assayProtocol: NCI tumour cell line growth inhibition, 48 h

# annotated cases, reported TGI shown
molecule	subjectOfTest	TGI
CCC1c2[nH]c3ccccc3c2C[C@H]2C(=O)NC(COC(C)(C)C)C(=O)N12 (stereo not given in full)	OVCAR-4 ovarian	> 100 µM
Cc1cn(C2CC(N(O)Cc3ccccc3)C(CO)O2)c(=O)[nH]c1=O (stereo not given)	OVCAR-4 ovarian	> 100 µM
CCOC(=O)CCc1c(C)c2c(OC(C)=O)cc(OC(C)=O)cc2oc1=O	OVCAR-4 ovarian	> 100 µM
COc1ccc2c(c1)CCc1c-2[nH]c2ccc(OC)cc12	OVCAR-4 ovarian	> 100 µM

Hello, please tell me recorded TGI for this one: "CO[C@H]1[C@@H](O)[C@@H](C)O[C@@H](O[C@H]2CC[C@@]3(C)[C@H](CC[C@@H]4[C@@H]3CC[C@]3(C)[C@@H](C5=CC(=O)OC5)[C@@H](OC(C)=O)C[C@]43O)C2)[C@@H]1O"
0.127 µM

====

Test system: BT-549 breast
assayProtocol: NCI tumour cell line growth inhibition, 48 h
Would you kindly list TGI for each of these compounds?

# annotated cases, reported TGI shown
compound	measured
COC1=C(Br)[C@H](O)[C@@]2(C=C1Br)CC(C(=O)NCCCCCN=C(N)N)=NO2	> 10 µM
Cc1cn(C2CC(ON3C(=O)c4ccccc4C3=O)C(CO)O2)c(=O)[nH]c1=O (stereo unspecified)	> 10 µM
CCC1c2[nH]c3ccccc3c2C[C@H]2C(=O)NC(COC(C)(C)C)C(=O)N12 (stereo partly specified)	> 100 µM
Nc1nc(Br)nc2c1ncn2C1CC(O)C(CO)O1 (stereo unspecified)	> 100 µM
O=C(O)c1cccc(OCCO)c1	> 100 µM
COc1ccc(/C=c2/sc3n(c2=O)C(c2ccc(OC)c(OC)c2)C2=C(N=3)c3cc(F)ccc3OC2)cc1 (stereo unspecified)	> 100 µM
O=C(O)c1cc(O)c2c(c1)C(C1c3cc(C(=O)O)cc(O)c3C(=O)c3c(OC4OC(CO)C(O)C(O)C4O)cccc31)c1cccc(OC3OC(CO)C(O)C(O)C3O)c1C2=O (stereo unspecified)	> 100 µM
CCN(CC)c1ccc2cc(-c3nnc(-c4ccccc4)o3)c(=O)oc2c1	> 100 µM

Record TGI per entry; entries follow.
1. C[C@]12CCC(=O)C=C1CC[C@@H]1C2CC[C@]2(C)c3nn(-c4ccc(F)cc4)nc3CC12 (stereo partly specified)
2. Cc1ccc2nc(-c3ccc(N)c(I)c3)sc2c1

["> 100 µM", "> 100 µM"]

Hello, please tell me recorded TGI for this one: "COc1ccc2c(c1)CCc1c-2[nH]c2ccc(OC)cc12"
> 100 µM

Hello, the source for this data is PubChem BioAssay (NCI), in case you need it.
